System: SW-620 colon
Assay: NCI-60 one-dose screen, 48 h (100 = growth as untreated, 0 = no growth, -100 = all killed)
Details: 10 µM unless noted
Compounds without any hit were thinned out: in the full panel of roughly 83,000, 20% have a hit.

| molecule | unit_name | growth |
| --- | --- | --- |
| COc1cc(C2CC(=O)Nc3c2cnn3C)cc(OC)c1OC (centres undefined) | % | 108 |
| COc1ccc(CNc2c3ccccc3nc3ccccc23)cc1F | % | 16.6 |
| CCC(=O)NC1=C(Cl)C(=O)C(NC(=O)CC)=C(Cl)C1=O | % | -72.1 |
| CNC(=O)OC1C(O[C@H]2C[C@H]3[C@@H]4CC=C5C[C@@H](O)CC[C@]5(C)[C@H]4CC[C@]3(C)[C@H]2[C@H](C)C(=O)CCC(C)C)OCC(O)C1OC1OCC(O)C(O)C1OC(=O)c1ccc(OC)cc1 (some centres undefined) | % | -37.2 |

###

Each record here notes measured growth.
System: OVCAR-3 ovarian
Test: NCI-60 one-dose screen, 48 h (100 = growth as untreated, 0 = no growth, -100 = all killed)
Settings: 10 µM unless noted
Compounds without any hit were thinned out: in the full panel of roughly 83,000, 20% have a hit. Activity calls are given as the source filed them. Rule for the calls: active = growth percent below 10; inactive = the rest.
measurement_type: growth

| given_smiles | result |
| --- | --- |
| O=c1oc2ccccc2cc1-c1cc(-c2ccc(-c3cc(-c4cc5ccccc5oc4=O)nc(-c4cc5ccccc5oc4=O)c3)cc2)cc(-c2cc3ccccc3oc2=O)n1 | 110% (inactive) |
| CCOC(OCC)c1cnc2nc(NC(C)=O)[nH]c(=O)c2n1 | 113% (inactive) |
| Clc1ccc(-c2cnc3nonc3n2)s1 | 23.1% (inactive) |
| COc1ccc([C@H]2c3[nH]c4ccccc4c3C[C@H]3C(=O)N(CCCCCCC(=O)NO)CC(=O)N23)cc1 | 33.9% (inactive) |
| O=C(c1ccccc1)C(CCc1ccccn1)CCc1ccccn1 | 103% (inactive) |

###

Test system: DU-145 prostate
Test: NCI-60 one-dose screen, 48 h (100 = growth as untreated, 0 = no growth, -100 = all killed)
Conditions: 10 µM unless noted
This is part of a sample that, as a whole, favours compounds with a hit. Of some 83,000 tested, about 20% had one in any assay.
Reported growth is given for each of the following molecules.
measurement_type: growth (%)

| molecule | unit_name | numeric_result |
| --- | --- | --- |
| COc1cc(CN(c2ccc(C)cc2)C2OC(=O)c3ccccc32)cc(OC)c1OC (stereo unspecified) | % | 25 |
| Cn1cnc([N+](=O)[O-])c1S(=O)(=O)Oc1cccc2ccccc12 | % | 43.1 |
| CC(C)OC1OC(OC(C)C)C(OC(C)C)OC1OC(C)C (stereo unspecified) | % | 112 |
| Clc1nnc2c3ccccc3ccn12 | % | 105 |
| CC1=C(/C=C/C(C)=C/C=C(C(=O)O)\C(C)=C\C(=O)O)C(C)(C)CCC1 | % | 109 |
| CC[C@]1(O)C[C@H]2CN(CCc3c([nH]c4ccccc34)C(C(=O)OC)(c3cc4c(cc3OC)N(C)[C@H]3[C@@](O)(C(=O)OC)[C@H](OC(C)=O)[C@]5(CC)[C@@H]6C[C@@H]6CN6CC[C@]43[C@@H]65)C2)C1 (stereo partly specified) | % | 12.1 |

###

Tested on: A498 renal
Assay: NCI-60 one-dose screen, 48 h (100 = growth as untreated, 0 = no growth, -100 = all killed)
Conditions: 10 µM unless noted
About 83,000 compounds went through this panel and 20% of them were active in at least one assay; those are over-represented in the sample as a whole.
growth below 70% gives class 0; growth at or above it gives class 1.

| molecule | assayed_target | assigned_category |
| --- | --- | --- |
| COc1ccc(-c2cc(C(=O)Nc3ccc(C)cc3)nc3[nH]c(=O)sc23)cc1 | A498 renal | class 0 |
| O=C(CCCCCCN1CC(=O)N2[C@@H](c3ccc(Cl)c(Cl)c3)c3[nH]c4ccccc4c3C[C@H]2C1=O)NO | A498 renal | class 1 |
| COc1cc2ccc(C(C)=O)cc2cc1OC | A498 renal | class 0 |
| CCCCCCCCN=C(NCCCCCCCC)SCc1cccc2ccccc12 | A498 renal | class 0 |
| COc1ccc(-c2nc3c(c(-c4ccc(Cl)cc4)nn3-c3ccccc3)c(-c3ccc(O)cc3)c2C#N)cc1 | A498 renal | class 0 |
| COc1ccc(-c2cc(-c3ccc(OC)cc3)c3sc(=O)[nH]c3n2)cc1 | A498 renal | class 0 |
| O=C(CCCN1CCC(O)(c2ccc(Br)cc2)CC1)c1ccc(F)cc1 | A498 renal | class 1 |
| O=C(c1ccccc1)c1cccc(C(Br)Br)c1 | A498 renal | class 1 |
| COc1ccc2c(c1)N(Cc1ccc(Cl)cc1)CCC2N1CCCC1=O (stereo unspecified) | A498 renal | class 0 |
| COc1ccc(-c2cc(-c3cc4ccccc4oc3=O)n(-c3ccccc3)n2)cc1 | A498 renal | class 1 |
| CCCCCCCCCCCC1=NC(C)(C)CN1CCO | A498 renal | class 1 |
| O=[N+]([O-])c1ccc(N/N=C/c2ccccc2O)nc1 | A498 renal | class 1 |
| Cc1ccc(C(=O)CC(=O)C(F)(F)C(F)(F)C(F)(F)F)s1 | A498 renal | class 1 |
| O=C(NNC(=O)c1cccc(Cl)c1)c1ccccc1 | A498 renal | class 1 |
| Clc1ccc(-c2cnc3c(-c4ccnc(N5CCNCC5)c4)cnn3c2)cc1 | A498 renal | class 1 |
| O=S1(=O)NCCCN1CCNc1nccc(-c2c(-c3cccc(O)c3)nc3sccn23)n1 | A498 renal | class 1 |
| COc1cc(C2CC(c3cccc(Nc4ccnc5cc(Cl)ccc45)c3)=NN2C=O)cc(OC)c1OC (stereo unspecified) | A498 renal | class 0 |
| NS(=O)(=O)c1ccc(CCn2c(SCC(=O)N/N=C/c3cc4ccccc4[nH]3)nc3ccccc3c2=O)cc1 | A498 renal | class 1 |
| CCN(CC)CCNC(=O)n1cc(-c2ccncc2)c(-c2ccc(Cl)c(OC)c2)n1 | A498 renal | class 1 |
| c1cn2cc(-c3ccc4ncn(C5CCCCC5)c4c3)nc(-c3ccc4c(c3)ncn4C3CCCCC3)c2n1 | A498 renal | class 0 |
| O=C(O/C(=C/c1ccccc1)C(F)(F)F)c1ccccc1 | A498 renal | class 1 |

###

System: SF-539 CNS
Assay: NCI-60 one-dose screen, 48 h (100 = growth as untreated, 0 = no growth, -100 = all killed)
Settings: 10 µM unless noted
Description: Cells are grown in 96 well plates and exposed to the test compound for 48 hours. Compounds are tested at a single concentration, which is 10^-5 M for most compounds. The reported endpoint is percent growth (GI% or GIPRCNT), where numbers from 0 - 100% represent growth inhibition, and numbers from -100% - 0 represent cell death. For example, a value of 40 represents 60% growth inhibition. A value of 0 means no net growth occurred over the course of the experiment. […]
About 83,000 compounds went through this panel and 20% of them were active in at least one assay; those are over-represented in the sample as a whole.

| compound | growth, % |
| --- | --- |
| CC(=O)N1N=C(C2C(=O)N(C)C(=O)N(C)C2=O)CC1c1ccccc1C(=O)O (configuration not stated) | 104 |
| O=C(c1ccccc1)c1cccc(C(Br)Br)c1 | 95.2 |
| C=C1C(=O)O[C@H]2[C@H]1CC/C(COC(=O)NCc1[nH]nc3ccccc13)=C\CC[C@@]1(C)O[C@@H]21 | 4.74 |
| C=C(c1ccc(C(=O)NCCCn2ccnc2)cc1)c1cc2c(cc1C)C(C)(C)CCC2(C)C | 2.41 |
| Oc1ccc(-c2nc3ccccc3s2)cc1CN(Cc1ccccn1)Cc1ccccn1 | 3.91 |
| CC(=O)OC[C@H]1O[C@@H](n2c(=O)cc(N)[nH]c2=O)C(OC(C)=O)[C@@H]1OC(C)=O (some centres not stated) | 98 |
| O=C(/C=C/c1cn(-c2ccccc2)nc1-c1ccccc1)OCc1cn(-c2cccc([N+](=O)[O-])c2)nn1 | 89.2 |
| CNC(=O)OC1C(O[C@H]2C[C@H]3[C@@H]4CC=C5C[C@@H](O)CC[C@]5(C)[C@H]4CC[C@]3(C)[C@H]2[C@H](C)C(=O)CCC(C)C)OCC(O)C1OC1OCC(O)C(O)C1OC(=O)c1ccc(OC)cc1 (some centres not stated) | -53.5 |
| COc1ccc2c(c1)C1=NN(C(=O)CO)[C@H](c3ccc(OC(F)(F)F)cc3)[C@@H]1CC2 | 93.2 |
| O=[N+]([O-])c1ccc(N/N=C/c2ccccc2O)nc1 | 42.9 |
| CC(C)(C)c1ccc(C(=O)Nc2sc3cc(O)ccc3c2C(N)=O)cc1 | 53.9 |
| CCCCCCCC/C=C/CCCCCCCC1=NC(C)(C)CN1C(C)C | 8.28 |
| COc1ccc2nc3ccccc3c(NCc3ccc(Cl)cc3)c2c1 | -5.77 |
| CCSCC1CC(O)(c2ccccc2)C(c2ccccc2)C(c2ccc(F)cc2)O1 (configuration not stated) | 4.38 |
| O=c1c2cc(Br)cc(Br)c2nc(-c2ccc(Cl)cc2)n1/N=C/c1cccc(F)c1 | 64.4 |
| CC(C)[C@@]12C[C@@H](OC(=O)[C@H]3CO3)[C@@](C)(O1)[C@@H]1CC[C@@H](C)[C@H]1[C@@H]2OC(=O)/C=C/c1ccccc1 | 91.1 |
| CC(=O)Nc1ccc(/C=N/N2CCCCCC2)cc1 | 83.6 |
| Cc1cc(Nc2c3ccccc3nc3ccccc23)ccc1NS(C)(=O)=O | 15 |
| O=C(Nc1ccc(Br)cc1)c1ccc(Cl)c(Cl)c1 | 67.5 |
| C=C(C)[C@@H]1CC[C@]2(C(=O)NS(=O)(=O)c3ccccc3)CC[C@]3(C)[C@H](CC[C@@H]4[C@@]5(C)CC[C@H](OC(=O)NS(=O)(=O)c6ccccc6)C(C)(C)[C@@H]5CC[C@]43C)[C@@H]12 | -34.3 |
| CC(C)(C)c1cc(C[P+](c2ccccc2)(c2ccccc2)c2ccccc2)cc(C(C)(C)C)c1O | 3.24 |
| COc1cc(C2CC(c3cccc(Nc4ccnc5cc(Cl)ccc45)c3)=NN2C=O)cc(OC)c1OC (configuration not stated) | -26.3 |
| CS(=O)(=O)c1ccc(C(=O)N/N=C/c2cccc3ccccc23)cc1 | 89.3 |
| O=C(Nc1ccc([N+](=O)[O-])cc1)c1cc2ccccc2cc1O | 2.51 |
| c1ccc2c(N=NSc3ncnc4nc[nH]c34)c3ccccc3nc2c1 | 5.02 |
| CN1C2CCC1/C(=C\c1ccc(F)cc1)C(=O)/C2=C/c1ccc(F)cc1 | 73.6 |
| NS(=O)(=O)c1ccc(CCn2c(SCC(=O)N/N=C/c3cccnc3)nc3ccccc3c2=O)cc1 | 104 |
| C=C1C(=O)O[C@H]2[C@H]1CC/C(COC(=O)N[C@@H](Cc1c[nH]c3ccccc13)C(=O)OC)=C\CC[C@@]1(C)O[C@@H]21 | 25.3 |
| Cc1nn(-c2cccc(Cl)c2)c(C)c1N=Nc1ccc(Br)cc1 | 90.7 |
| COc1ccc(C(=O)OC2C(OC3C(O)COC(O[C@H]4C[C@H]5[C@@H]6CC=C7C[C@@H](O)CC[C@]7(C)[C@H]6CC[C@]5(C)[C@H]4[C@H](C)C(=O)CCC(C)C)C3OC(C)=O)OCC(O)C2O)cc1 (some centres not stated) | -69.8 |
| COc1cc2ccc(C(C)=O)cc2cc1OC | 95.6 |
| O=C1/C=C/[C@@H](O)[C@@H]2C[C@@H](O)C[C@H]2/C=C/CCC[C@H]([C@@H](O)CO)O1 | 74.3 |
| O=C(CCl)Nc1cc(O)c2c(c1)C(=O)c1cccc(O)c1C2=O | -32.3 |
| COc1ccc2c(c1)N(Cc1ccc(Cl)cc1)CCC2N1CCCC1=O (configuration not stated) | 48.5 |
| COc1cccc(NC(=O)OC(C)C)c1 | 106 |
| O=C(Nc1ccncc1)C(=O)c1cn(S(=O)(=O)c2cccc(Cl)c2F)c2ccccc12 | 83.2 |
| CCCCCCCCCCCCNC(=O)N[C@H](C(=O)N[C@H]1/C=C/OCCNC(=O)/C=C/[C@H](C(C)C)NC1=O)C(C)C | 54.6 |
